# assayedSystem: Sodium-dependent noradrenaline transporter (Homo sapiens, UniProt P23975)
# Sequence (P23975 whole entry): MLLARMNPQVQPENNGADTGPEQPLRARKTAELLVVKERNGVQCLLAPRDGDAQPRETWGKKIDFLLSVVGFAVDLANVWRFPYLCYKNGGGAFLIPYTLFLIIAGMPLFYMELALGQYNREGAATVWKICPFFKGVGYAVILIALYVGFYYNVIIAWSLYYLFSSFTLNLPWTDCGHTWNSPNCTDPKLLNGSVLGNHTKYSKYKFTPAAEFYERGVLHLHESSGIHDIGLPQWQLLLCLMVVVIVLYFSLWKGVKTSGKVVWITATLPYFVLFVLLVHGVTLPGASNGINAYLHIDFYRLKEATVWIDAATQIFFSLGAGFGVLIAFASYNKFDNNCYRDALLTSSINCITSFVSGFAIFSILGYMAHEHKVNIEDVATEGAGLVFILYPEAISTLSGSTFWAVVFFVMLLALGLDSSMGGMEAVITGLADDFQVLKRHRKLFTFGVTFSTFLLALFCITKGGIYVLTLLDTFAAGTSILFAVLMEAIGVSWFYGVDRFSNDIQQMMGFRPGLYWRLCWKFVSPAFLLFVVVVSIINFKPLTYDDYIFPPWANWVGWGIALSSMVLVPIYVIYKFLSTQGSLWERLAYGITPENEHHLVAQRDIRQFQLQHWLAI
# experimentalProtocol: Inhibition of [3H]noradrenaline uptake at human NET expressed in HEK293 cells after 10 mins by scintillation counting
measuredMetric: IC50 (nM)

{"columns": ["molecule", "measuredMetric", "unitDescriptor", "recordedValue"],
 "data": [
  ["COc1ccc2cc(C(O)CCN3CC=C(Cc4ccccc4)CC3)ccc2c1Cl (racemic)", "IC50", "nM", 420],
  ["OC(CCN1CC=C(Cc2ccccc2)CC1)c1csc2ccccc12 (racemic)", "IC50", "nM", 385],
  ["OC(CCN1CC=C(Cc2ccccc2)CC1)c1cc2ccccc2s1 (racemic)", "IC50", "nM", 327],
  ["OC(CCN1CCC(O)(Cc2ccccc2)CC1)c1ccc(Cl)c(Cl)c1 (racemic)", "IC50", "nM", 265],
  ["OC(CCN1CC=C(Cc2ccccc2)CC1)c1ccc(Cl)c(Cl)c1 (racemic)", "IC50", "nM", 178]
]}

[a] C[C@@H]([C@@H](O)c1ccc(Cl)c(Cl)c1)N1CC=C(Cc2ccccc2)CC1 (racemic)
[b] COc1ccc2cc(C(O)CCN3CCC(O)(Cc4ccccc4)CC3)ccc2c1Cl (racemic)
-- ask Could you kindly indicate whether a or b has the higher IC50 value? Select an item and report its label.
-- reply b
(b: 800 nM, a: 531 nM)

Values were extracted from ChEMBL document CHEMBL2046296.
